target: T1, cynomolgus CD38 ECD (cynomolgus, UniProt Q5VAN0 44-301, biotinylated on the AviTag during preparation); test: SPR (Biacore 8K), antibody captured, antigen injected;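 note: antibodies held on a CM5 chip through anti-human IgG Fc, antigen in 3-fold serial dilutions, 1 min association then 10 min dissociation at 25 °C, 1:1 Langmuir global fit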
T1 construct: also called Cyno-CD38; Avi-Cyno CD38 ECD
measurement label: Kd (nM)
Write the value in nM as a bare number.

Reference set, count: 4
INSERT INTO results (binder, readout_value) VALUES
  ('17F7 (antibody, human IgG1, kappa, V domains shown, Rabbit-human chimeric anti-CD38: rabbit VH and VL on human IgG1 and kappa constant regions) VH: QSVEESGGRLVTPGTPLTLTCTASGFSLSSYYMSWVRQAPGKGLEWIGFISKTAITYYASWARGRFTISKTSTAVDLKITSPTTEDTATYFCARVDAYSAGDLWGPGTLVTVSS VL: AQVLTQTPSSVSAAVGGTVTINCQASQSVYSDNRLSWFQQKSGQPPKLLIYSTSSLASGVPSRFSGSGSGTQFTLTISGVQSDDAASYYCQGEFICTSADCFVFGGGTEVVVKR', 2.32),
  ('18E4 (antibody, human IgG1, kappa, V domains shown, Rabbit-human chimeric anti-CD38: rabbit VH and VL on human IgG1 and kappa constant regions) VH: QSLEESGGDLVKPGASLTLTCTASGFSFNNYWICWIRQAPGKGLEWVACIYSPSGDIKYYANWAKGRFTVSKTSSTTVTLQMTSLTGADTATYFCARELSGSSYEGYFESWGPGTLVTVSS VL: AQVLTQTPSSVSAAVGGTVTINCQCSQSVYGHNWLAWYQHKPGQPPKLLMYRASNLASGVPSRFKGSGSGSQFTLTIGEVQSDDAATYYCQGYYNGGSYAFGGGTEVVVRR', 0.42),
  ('1E2 (antibody, human IgG1, kappa, V domains shown, Rabbit-human chimeric anti-CD38: rabbit VH and VL on human IgG1 and kappa constant regions) VH: QSVEESGGRLVTPGTPLTLTCTVSGIDLNSYAMGWVRQAPGKGLKYIGIMTSGGNIYYANWAKGRFTISKTSTTVDLRITSPTTEDTATYFCAREREFYGGGTSGSRLDLWGQGTLVTVSS VL: AYDMTQTPASVEAAVGGTVTIKCQASQSIYNFLNWYQQKPGQPPKLLIYYASTLAFGVPSRFKGSGSGTEYTLTISGVESADAATYYCQQGWNSGILDNSFGGGTEVVVKR', 68.1),
  ('25C3 (antibody, human IgG1, kappa, V domains shown, Rabbit-human chimeric anti-CD38: rabbit VH and VL on human IgG1 and kappa constant regions) VH: QEQLEESGGDLVKPGASLTLTCKASGFSFSSAYDMCWVRQAPGKGLEWVACLYTVSSDSIYYASWAKGRFTISRTSSTTVTLQMTSLTAADTATYFCARDGDYFALWGPGTLVTVSS VL: DIVMTHTPASVEAAVGGTVTIKCQASQNIGGYLSWYQQKPGQRPKLLIYRASTLASGVPSRFKGSGSGTQFTLTISDLESADAATYYCQTYYYSGSSRYWAFGGGTEVVVKR', 0.15);

Kindly review the next binder as well.
Requested read-out: Kd. Entry: 23B3 (antibody, human IgG1, kappa, V domains shown, Rabbit-human chimeric anti-CD38: rabbit VH and VL on human IgG1 and kappa constant regions) VH: QSVEESGGRLVTPGTPLTLTCTVSGFSLSNYDMTWVRQAPGRGLEWIGVISSGDNTNYARWAKGRFTISKTSSTTVDLKITSPTTEDTATYFCARILYNKGRYYFTFWGPGTLVTVSS VL: AQVLTQTPSSVSAAVGGTVTINCQSSQSIANSDELAWYQQKPGQPPKLLIYDASTLAPGVPSRFSGSGSGTQFTLTISGVQSDDAATYYCQGTVYDSGWYAAFGGGTEVVVKR 0.04
